Data origin, for the record: PubChem BioAssay (NCATS)

target: Retinaldehyde dehydrogenase 3 (Homo sapiens); experiment: qHTS for Inhibitors of the Aldehyde Dehydrogenase Family (ALDH1A3) Confirmatory screens (AID 2061311); conditions: ALDH inhibition qHTS; series mostly up to 46 µM; also: nearly all actives have a fitted effect of over 60% in size
Results filed as inconclusive are left out. Calls of active or inactive are those of the source. Calls follow the shape of the dose curve; as a rule, active = well fitted inhibition curve with a large enough effect; inconclusive = small, poorly fitted or top-dose-only effect; inactive = no such curve, though single readings can be large or run the other way.
API: response.call in active, inactive

// query Dear all, I need the recorded test outcome for "Cc1coc2c1C(=O)C(=O)c1c-2ccc2c(C)cccc12" , thank you.
// result active

// query Lookup "Cc1cc(C)nc(NC(=S)N2CCN(c3ccc4nsnc4c3)CC2)c1"
// result active

// query Lookup "Cc1ccc(NC(=O)N2CCN(c3nc(N)nc4sc(-c5cccnc5)nc34)CC2)cc1"
// result active

// query Lookup "COc1ccc2c(c1)CCc1sc(NC(=O)c3ccc(Cl)cc3)nc1-2"
// result active

// query Lookup "N#Cc1ccc(-c2cnc3[nH]cc(NC(=O)c4cccnc4)c3c2)cc1"
// result active

// query Lookup "Nc1nnc(-c2ccc3ccccc3c2)o1"
// result inactive

// query Lookup "O=C(O)c1cccc(-n2[nH]c(-c3ccccc3)cc2=O)c1"
// result active

// query Lookup "O=C(O)c1ccc(S(=O)(=O)N[C@H](Cc2ccc(C(F)(F)F)cc2)C(=O)O)cc1"
// result inactive

// query Lookup "Cc1cn(C[C@H](N)C(=O)O)c(=O)n(Cc2ccsc2C(=O)O)c1=O"
// result inactive

// query Lookup "O=C(O)c1cccc(-c2noc(-c3ccccc3F)n2)c1"
// result active

// query Lookup "COc1ccc2c(OC)c3ccoc3nc2c1OC"
// result active

// query Lookup "CN(C)C/C=C(/c1ccc(Br)cc1)c1cccnc1"
// result inactive

// query Lookup "Cc1ccc(CNc2ccc(N3CCNCC3=O)cc2)cc1"
// result active

// query Lookup "Cn1nnnc1Sc1ncnc2scc(-c3cnc(N)nc3)c12"
// result inactive

// query Lookup "O=C1Nc2ccccc2/C1=C\c1ccc(C(=O)O)cc1"
// result inactive

// query Lookup "O=C1Cc2cc(C(=O)c3ccco3)ccc2N1"
// result active

// query Lookup "COc1ccc(-c2ccc(CNc3ccc(N4CCN(C(=O)OC(C)(C)C)CC4)cc3)o2)cc1"
// result inactive

// query Lookup "CN1CCc2sc(NC(=O)Cc3ccccc3)c(C(=O)Nc3ccc(Cl)cc3)c2C1"
// result inactive

// query Lookup "CC(C)(C)OC(=O)N1CCN(c2ccc(NCc3ccc(-c4ccc(C#N)cc4)o3)cn2)CC1"
// result active

// query Lookup "O=C(O)c1ccc2c(c1)C(=O)N([C@H](Cc1ccc(F)cc1)C(=O)O)C2=O"
// result inactive

// query Lookup "COc1cccc(-c2ccc(CNc3ccc(N4CCN(C(=O)OC(C)(C)C)CC4)cc3)o2)c1"
// result inactive

// query Lookup "COc1cc(C(=O)OC[C@H]2O[C@@H](Oc3ccccc3/C=C/C(=O)O)[C@H](O)[C@@H](O)[C@@H]2O)cc(OC)c1OC"
// result active

###

molecular target: Cellular tumor antigen p53 (Homo sapiens) (UniProt P04637); assay: Primary qHTS for small molecule compounds that upregulate eGFP-tagged delta133p53alpha (in N-terminal) cells. (AID 2060322); conditions: NCI-H358 eGFP-delta133p53alpha fluorescence, 24 h; active compounds read high;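 also: cells pre-induced with doxycycline then dosed without doxycycline; 0% = DMSO vehicle and 100% = reference activator; nearly all actives have a fitted effect of over 75% in size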
Sequence (P04637 whole entry, looked up): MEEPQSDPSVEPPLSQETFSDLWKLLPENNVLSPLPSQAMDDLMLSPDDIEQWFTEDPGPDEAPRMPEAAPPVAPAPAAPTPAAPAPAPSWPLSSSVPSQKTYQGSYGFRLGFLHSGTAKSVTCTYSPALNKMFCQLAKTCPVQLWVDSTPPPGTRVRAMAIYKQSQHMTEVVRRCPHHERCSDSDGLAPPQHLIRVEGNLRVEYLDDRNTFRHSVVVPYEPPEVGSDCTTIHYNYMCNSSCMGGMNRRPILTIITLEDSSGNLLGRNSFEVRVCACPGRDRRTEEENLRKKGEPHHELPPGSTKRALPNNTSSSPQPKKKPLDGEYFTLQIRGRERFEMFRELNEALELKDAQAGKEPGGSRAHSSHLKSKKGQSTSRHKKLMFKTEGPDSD
Inconclusive results are not listed. Numbered stars: 1 amine (or outer) side, 2 acyl side, 3 side chain; on linkers, the order of the positions; unused ones are H or OH. Bridge positions count the residues as written; N and C are the ends. Square brackets hold non-standard residues; d marks the D form. Peptide text beside a SMILES is read from it. * marks the point of attachment. pTerphenylCO(4''-OnC5H11) = CCCCCOc1ccc(-c2ccc(-c3ccc(C(=O)*)cc3)cc2)cc1; Orn(4R-OH,5R-OH) = O=C([C@H](C[C@@H](O)[C@@H](O)N[*:3])N[*:1])[*:2]; hTyr(3S-OH,4S-OH) = N[C@H](C(=O)O)[C@H](O)[C@@H](O)c1ccc(O)cc1; Pro(3S-OH,4S-Me) = C[C@H]1CN[C@H](C(=O)O)[C@H]1O; Hyp = O=C(O)[C@@H]1C[C@@H](O)CN1
Exercise: state measured activation for each of the molecules provided.
Reply with just the number (in %).

// query What does the record list as activation for Cc1ccc(C2(COC(=O)C(C)C)CO2)c(OC(=O)C(C)C)c1 (configuration not stated) ?
// result 3.82

// query Lookup "COc1cc(N)c(Cl)cc1C(=O)NC1CCN(Cc2ccccc2)CC1"
// result 17.6

// query Lookup C=CC(C)(O)CC[C@@H]1[C@@]2(C)CCCC(C)(C)C2CC[C@@]1(C)O (some centres not stated)
// result 1.91

// query Lookup CNC(C)C(=O)NC(C(=O)N1CCCC1C(=O)Nc1snnc1-c1ccccc1)C1CCCCC1 (configuration not stated)
// result 11

// query Lookup "OCC1=C[C@@H](O)[C@@H]2C=CO[C@@H](O[C@@H]3O[C@H](CO)[C@@H](O)[C@H](O)[C@H]3O)[C@H]12"
// result -32.8

// query Lookup N[C@H]1CN(c2c(F)cc3c(=O)c(C(=O)O)cn(C4C[C@@H]4F)c3c2Cl)CC12CC2 (some centres not stated)
// result -26

// query Lookup "COc1ccc(C(=O)NCc2cccnc2)cc1C(=O)NCc1cccnc1"
// result -12.6

// query Lookup COc1cc(/C=C/C(=O)OC2CC(C)=C(C(=O)O)/C2=C/CO[C@@H]2O[C@H](CO)[C@@H](O)[C@H](O)[C@H]2O)ccc1O (some centres not stated)
// result -8.93

// query Lookup CC(C)OC(=O)c1cc2c(OCC(O)CNC(C)(C)C)cccc2[nH]1 (configuration not stated)
// result 20.9

// query Lookup "OCc1ccccc1O[C@@H]1O[C@H](CO)[C@H](O)[C@H](O)[C@H]1O"
// result 15.8

// query Lookup "C[C@@]1(O)[C@H](O)[C@@H](CO)O[C@H]1n1cnc2c(=O)[nH]c(N)nc21"
// result -12.3

// query Lookup OCC1O[C@H](O)C(Cl)C(O)C1O (some centres not stated)
// result -8.54

// query Lookup CC1=C(C)C(=O)OC(C(C)C2CCC3C4CC=C5CC(OC6OC(COC7OC(CO)C(O)C(O)C7O)C(O)C(O)C6O)CC(O)C5(C)C4CCC23C)C1 (configuration not stated)
// result 9.16

// query Lookup "CCC[C@H](N[C@@H](C)C(=O)N1[C@@H]2CCCC[C@H]2C[C@H]1C(=O)O)C(=O)OCC"
// result -22.1

// query Lookup "CC(C)(C)c1ccc(NC(=O)N2CCN(c3ncccc3Cl)CC2)cc1"
// result -11.5

// query Lookup "OCCCc1ccccc1"
// result -6.21

// query Lookup CC(C)(C)c1onc(OCP(=O)(O)O)c1CC(N)C(=O)O (configuration not stated)
// result 5.95

// query Lookup C=C1C(=O)OC[C@H]2C(C(=O)O)=CC3CC(C)(C)C[C@@]132 (some centres not stated)
// result 13.4

// query Lookup Nc1cccc2c1C(=O)N(C1CCC(=O)NC1=O)C2=O (configuration not stated)
// result 28.8

// query Lookup C=C1CCCC2(C)CC3(OC)OC(=O)C(C)=C3CC12 (configuration not stated)
// result 16.1

// query Lookup "C1CCc2nnnn2CC1"
// result -8.09

// query Lookup O=C(OC1C[C@H]2CC[C@@H](C1)[N+]21CCCC1)C(O)(c1ccccc1)c1ccccc1 (some centres not stated)
// result 5.18

// query Lookup "NC(=O)c1cccc(N)c1"
// result 7.85

// query Lookup "CSC(=N)N"
// result 3.81

// query Lookup CCCCCOc1ccc(-c2ccc(-c3ccc(C(=O)N[C@H]4C[C@@H](O)[C@@H](O)NC(=O)[C@@H]5[C@@H](O)[C@@H](C)CN5C(=O)[C@H]([C@@H](C)O)NC(=O)[C@H]([C@H](O)[C@@H](O)c5ccc(O)cc5)NC(=O)[C@@H]5C[C@@H](O)CN5C(=O)[C@H]([C@@H](C)O)NC4=O)cc3)cc2)cc1 ({pTerphenylCO(4''-OnC5H11)}-[Orn(4R-OH,5R-OH)]T[Hyp][hTyr(3S-OH,4S-OH)]T[Pro(3S-OH,4S-Me)]; lactam 1-C)
// result 22.9

// query Lookup C=C1CCC2[C@@](C)(C=O)CCC[C@]2(C)[C@H]1CC/C(C)=C/CO (some centres not stated)
// result 18.3

// query Lookup CC1=C2CC(=O)C(C)CC/C=C(\C)CC2OC1=O (configuration not stated)
// result 8.93

// query Lookup "CSC(=O)OCC1=C[C@@H]2OC(=O)C3=CO[C@@H](O[C@@H]4O[C@H](CO)[C@@H](O)[C@H](O)[C@H]4O)[C@H]1[C@@H]32"
// result -22.1

// query Lookup "CCOC(=O)C=C[C@H](C[C@@H]1CCNC1=O)NC(=O)[C@@H](CC(=O)[C@@H](NC(=O)c1cc(C)on1)C(C)C)Cc1ccc(F)cc1"
// result 17.3

// query Lookup CC(C)(C)NCC(O)COc1ccc(NC(=O)NC2CCCCC2)cc1 (configuration not stated)
// result 5.08

// query Lookup "c1ccc(C(OC2CCN(CCCc3nn[nH]n3)CC2)c2ccccc2)cc1"
// result -4.77

// query Lookup C[C@@H]1CC[C@]2(C(=O)O)CC[C@]3(C)C(=CCC4[C@@]5(C)C[C@@H](O)[C@H](O)[C@@](C)(CO)C5CC[C@]43C)C2[C@]1(C)O (some centres not stated)
// result 29.5

// query Lookup CC1=C2C(=O)C=C(CO)C2[C@H]2OC(=O)[C@H](C)[C@@H]2[C@@H](OC(=O)Cc2ccc(O)cc2)C1 (some centres not stated)
// result -11.6

// query Lookup "CN1CCN(C(=O)c2cc3cc(Cl)ccc3[nH]2)CC1"
// result -0.893

// query Lookup FC1(F)C(F)(F)C(F)(F)C2(F)C(F)(F)C(F)(F)C(F)(F)C(F)(F)C2(F)C1(F)F (configuration not stated)
// result -7.34

// query Lookup "C[C@@H](NC(=O)c1ncnc(N)c1Cl)c1ncc(C(=O)Nc2cc(C(F)(F)F)c(Cl)cn2)s1"
// result 19.6

// query Lookup "NCC(=O)O"
// result 13
